In this section we review reported log10 of KA values for a set of compounds.
# Assayed target: Carbonic anhydrase 2 (Homo sapiens) (UniProt P00918)
# Assay explanation: […] of human Carbonic anhydrase II, using histamine as standard
Scale: decimal log of KA, KA in µM.

A selection of reference data follows.
> print(dat)
                         compound.structure  endpoint.value
1  CCc1cc(-c2ccccc2)cc(-c2ccccc2)[n+]1-c1ncc[nH]1            1.92
2  CC(C)c1cc(-c2ccccc2)cc(-c2ccccc2)[n+]1-c1ncc[nH]1            2.03
3   Cc1cc(C(C)C)[n+](-c2cc[nH]n2)c(C(C)C)c1           -0.58

Could you tell me which log10 of KA is on file for CC(C)c1cc(-c2ccccc2)cc(-c2ccccc2)[n+]1-c1cc[nH]n1 ? 2.11

# log10 of KA lookup, item CCc1cc(-c2ccccc2)cc(CC)[n+]1-c1nn[n-]n1 0.09

Looking for the measured log10 of KA of Cc1cc(-c2ccccc2)cc(-c2ccccc2)[n+]1-c1cc[nH]n1 , can you help? 1.98

Quick one: log10 of KA for Cc1cc(-c2ccccc2)cc(C)[n+]1-c1nn[n-]n1 ? 0.14

Quick one: log10 of KA of Cc1cc(C)[n+](-c2cc[nH]n2)c(C)c1C ? -0.34

Suppose we examine the compound Cc1cc(-c2ccccc2)cc(-c2ccccc2)[n+]1-c1ncc[nH]1 ; what log10 of KA value has been reported? 1.79

So what does the record say about log10 of KA for Cc1cc(-c2ccccc2)cc(-c2ccccc2)[n+]1-c1nn[n-]n1 ? 2.03

Item CCc1cc(-c2ccccc2)cc(-c2ccccc2)[n+]1-c1cc[nH]n1 has what recorded log10 of KA? 2.07

----------
# Assayed target: Carbonic anhydrase 1 (Homo sapiens) (UniProt P00915)
# Sequence (P00915 2-261 limits assumed): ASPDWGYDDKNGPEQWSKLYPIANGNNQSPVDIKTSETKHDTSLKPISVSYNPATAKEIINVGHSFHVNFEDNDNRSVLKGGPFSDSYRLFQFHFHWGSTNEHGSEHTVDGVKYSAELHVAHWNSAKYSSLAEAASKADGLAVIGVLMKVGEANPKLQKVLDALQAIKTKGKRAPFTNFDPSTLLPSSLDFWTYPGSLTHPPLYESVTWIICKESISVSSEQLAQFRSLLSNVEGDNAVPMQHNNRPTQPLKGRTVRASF
# Assay explanation: Activation of human Carbonic anhydrase I, using histamine as standard
Measured metric: KA (µM)
Note: unit µM is implicit; provide only the numeric part.

> print(dat)
                         compound.structure  measured.metric  measure.unit  endpoint.value
1  CCc1cc(-c2ccccc2)cc(-c2ccccc2)[n+]1-c1nn[n-]n1               KA            µM            3.05

Lab note: need KA for Cc1cc(C(C)C)[n+](-c2cc[nH]n2)c(C(C)C)c1 on Carbonic anhydrase 1 (Homo sapiens) (UniProt P00915), anyone have it? 0.038

# value lookup — system Carbonic anhydrase 1 (Homo sapiens) (UniProt P00915), readout KA, item CCc1cc(-c2ccccc2)cc(CC)[n+]1-c1ncc[nH]1 0.018

Query the reported KA for Carbonic anhydrase 1 (Homo sapiens) (UniProt P00915); item: CCCc1cc(-c2ccccc2)cc(CCC)[n+]1-c1cc[nH]n1 1.35

Provide value of KA for this record tested with Carbonic anhydrase 1 (Homo sapiens) (UniProt P00915): CCCc1cc(-c2ccccc2)cc(-c2ccccc2)[n+]1-c1nn[n-]n1 4.21

What reported KA corresponds to CCCc1cc(-c2ccccc2)cc(-c2ccccc2)[n+]1-c1cc[nH]n1 on Carbonic anhydrase 1 (Homo sapiens) (UniProt P00915)? 2.78

Give the reported KA for CC(C)c1cc(-c2ccccc2)cc(-c2ccccc2)[n+]1-c1nn[n-]n1 (system: Carbonic anhydrase 1 (Homo sapiens) (UniProt P00915)). 2.87

Notebook: pull reported KA for Carbonic anhydrase 1 (Homo sapiens) (UniProt P00915), entry CC(C)c1cc(-c2ccccc2)cc(-c2ccccc2)[n+]1-c1ncc[nH]1 1.54
